Entries and their Decrease values follow.
- Tested on: Rattus norvegicus
- assay details: Decrease in paw volume by the effect of compound at a dose of 100 mg/kg
- Type: functional
Write down the numeric answer in % and omit the unit.

Look up Decrease: `CCS(=O)(=O)c1nc(-c2ccccc2)c(-c2ccccc2)[nH]1` 32

`Cc1ccc(-c2[nH]c(S(C)(=O)=O)nc2-c2ccccc2)cc1` , same question. 45

C[S+]([O-])c1nc(-c2cccc(F)c2)c(-c2ccccc2)[nH]1 (centres undefined) , same question. 67

`CCCS(=O)(=O)c1nc(-c2ccccc2)c(-c2ccccc2)[nH]1` , same question. 26

Every entry's value here was drawn from ChEMBL document CHEMBL1123026.
